target: yeast α-glucosidase from Saccharomyces cerevisiae; assay: α-glucosidase inhibitory effect (pNPG, AUC of absorbance at 405 nm); format: biochemical; settings: mean ± SD of three repeated tests; logarithmic regression
// classify: if (IC50 α-Glucosidase < 300 µg/mL) True else False

>>> answerlabel("O=c1cc(-c2ccccc2)oc2cc(O)c(O)c(O)c12")
"True"
>>> answerlabel("O=C(O)[C@H]1O[C@@H](Oc2cc3oc(-c4ccccc4)cc(=O)c3c(O)c2O)[C@H](O)[C@@H](O)[C@@H]1O")
"False"
>>> answerlabel("C[C@H]1O[C@H](O[C@H]2[C@H](O)[C@@H](O)[C@@H](O[C@H]3[C@H](O)[C@@H](O)C(O)O[C@@H]3CO)O[C@@H]2CO)[C@H](O)[C@@H](O)[C@@H]1N[C@H]1C=C(CO)[C@@H](O)[C@H](O)[C@H]1O (some centres unmarked) [Acarbose, acarbose, reference compound]")
"False"
>>> answerlabel("O=c1cc(-c2ccccc2)oc2cc(O)cc(O)c12")
"False"
>>> answerlabel("O=c1cc(-c2ccc(O)cc2)oc2cc(O)cc(O)c12")
"True"
>>> answerlabel("O=C(O)[C@H]1O[C@@H](Oc2cc(O)c3c(=O)cc(-c4ccccc4)oc3c2)[C@H](O)[C@@H](O)[C@@H]1O [Chrysin-7-O-G, chrysin-7-O-glucuronide]")
"False"
>>> answerlabel("O=C(O)[C@H]1O[C@@H](Oc2cc3oc(-c4ccc(O)cc4)cc(=O)c3c(O)c2O)[C@H](O)[C@@H](O)[C@@H]1O")
"False"
>>> answerlabel("O=C(O)[C@H]1O[C@@H](Oc2cc(O)c3c(=O)cc(-c4ccc(O)cc4)oc3c2)[C@H](O)[C@@H](O)[C@@H]1O [Apigenin-7-O-G, apigenin-7-O-glucuronide]")
"False"
